Test: In vitro microsomal stability, mouse
Type: in vitro ADME
Conditions: pH 7.4; mouse liver microsomes; read-out: mouse LM CLint
observationType: microsomal CLint at 1 µM (µL/min/mg)
Numeric answer only, unit µL/min/mg assumed.

Fill in: microsomal CLint at 1 µM of "CCN1C(=O)COc2nc(-c3ccc([C@]4(N)C[C@@H](O)C4)cc3)c(-c3ccccc3)cc21" is ___
6

###

Test: Kinetic solubility assay
Assay type: physicochemical
Conditions: PBS buffer, pH 7.4, aqueous buffer, kinetic from dmso stock, PBS pH 7.4; read-out: Kinetic solubility pH7.4
observationType: solubility kinetic (µM)
Answer in µM, number only, no unit symbol.

compound: CCN1C(=O)COc2nc(-c3ccc([C@]4(N)C[C@@H](O)C4)cc3)c(-c3ccccc3)cc21
observationType: solubility kinetic
readingUnit: µM
result: 192

Please look up its solubility kinetic: NC1(c2ccc(-c3nc4ccn5c(=O)[nH]nc5c4cc3-c3ccccc3)cc2)CCC1 [MK-2206, reference compound]
190

Need solubility kinetic of "NC1(c2ccc(-c3nc4c(cc3-c3ccccc3)NC(=O)CO4)cc2)CCC1" , thanks.
206

###

Biological target: AKT2 (Homo sapiens)
Construct: purchased Signal Chem
Sequence (P31751 whole entry): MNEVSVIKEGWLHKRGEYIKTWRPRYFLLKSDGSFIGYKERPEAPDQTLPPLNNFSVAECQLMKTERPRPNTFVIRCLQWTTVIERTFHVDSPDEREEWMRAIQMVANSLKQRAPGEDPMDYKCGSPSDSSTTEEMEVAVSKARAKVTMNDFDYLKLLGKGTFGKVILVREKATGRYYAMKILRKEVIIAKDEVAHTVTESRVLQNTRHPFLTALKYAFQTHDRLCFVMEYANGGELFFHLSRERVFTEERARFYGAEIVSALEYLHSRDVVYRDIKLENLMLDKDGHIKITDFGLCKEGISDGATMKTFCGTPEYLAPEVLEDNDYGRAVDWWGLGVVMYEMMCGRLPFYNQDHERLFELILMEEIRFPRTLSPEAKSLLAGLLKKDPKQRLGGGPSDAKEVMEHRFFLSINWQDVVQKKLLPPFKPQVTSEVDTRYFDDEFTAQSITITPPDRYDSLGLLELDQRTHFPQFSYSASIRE
Experiment: AKT2 biochemical kinase assay (FP iMAP)
Details: full length AKT2; read-out: IC50 full length AKT2
observationType: IC50 (µM)
Note: unit µM is implicit; provide only the numeric part.

Given CCN1C(=O)COc2nc(-c3ccc([C@]4(N)C[C@@H](O)C4)cc3)c(-c3ccccc3)cc21 [ALM301] , state its recorded IC50.
0.095

###

Tested on: MCF-7 cells
Assay: Clonogenic cell survival assay
Type: cell-based
Settings: Homo sapiens, MCF7; MCF-7, concentration range 0.001–10 µM
observationType: IC50 (µM)
Quick note: give the figure in µM, leave out the unit.

What value of IC50 has been recorded for this entry: "CCN1C(=O)COc2nc(-c3ccc([C@]4(N)C[C@@H](O)C4)cc3)c(-c3ccccc3)cc21"
0.1

###

Assay: In vitro microsomal stability, rat
Format: in vitro ADME
Details: pH 7.4; rat liver microsomes; read-out: rat LM CLint
observationType: microsomal CLint at 1 µM (µL/min/mg)
Reply with just the number (in µL/min/mg).

compound: CCN1C(=O)COc2nc(-c3ccc([C@]4(N)C[C@@H](O)C4)cc3)c(-c3ccccc3)cc21
result: 3

Entry NC1(c2ccc(-c3nc4ccn5c(=O)[nH]nc5c4cc3-c3ccccc3)cc2)CCC1 [MK-2206, reference compound] has what microsomal CLint at 1 µM?
13

###

Molecular target: CYP3A4 (Homo sapiens, UniProt P08684)
Sequence (P08684 whole entry): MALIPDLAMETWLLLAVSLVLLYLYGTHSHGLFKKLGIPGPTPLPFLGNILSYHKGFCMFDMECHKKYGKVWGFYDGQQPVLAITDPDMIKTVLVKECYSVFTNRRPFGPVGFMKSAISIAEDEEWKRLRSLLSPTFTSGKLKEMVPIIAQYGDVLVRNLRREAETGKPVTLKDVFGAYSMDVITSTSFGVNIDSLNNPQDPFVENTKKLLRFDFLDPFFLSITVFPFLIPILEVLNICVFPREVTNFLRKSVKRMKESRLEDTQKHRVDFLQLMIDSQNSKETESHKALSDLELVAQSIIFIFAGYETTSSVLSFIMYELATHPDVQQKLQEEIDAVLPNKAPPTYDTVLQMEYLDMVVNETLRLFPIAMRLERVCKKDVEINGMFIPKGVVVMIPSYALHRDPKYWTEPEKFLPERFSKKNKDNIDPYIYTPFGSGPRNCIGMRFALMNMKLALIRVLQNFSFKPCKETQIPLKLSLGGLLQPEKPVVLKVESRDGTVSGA
pIC50: −log10 of the molar value.
observationType: pIC50

What is its pIC50 for CYP3A4 (Homo sapiens, UniProt P08684)? Entry: CCN1C(=O)COc2nc(-c3ccc([C@]4(N)C[C@@H](O)C4)cc3)c(-c3ccccc3)cc21 [ALM301]
< 4.60

###

Target: AKT3 (Homo sapiens)
Construct: purchased Signal Chem
Sequence (Q9Y243 whole entry): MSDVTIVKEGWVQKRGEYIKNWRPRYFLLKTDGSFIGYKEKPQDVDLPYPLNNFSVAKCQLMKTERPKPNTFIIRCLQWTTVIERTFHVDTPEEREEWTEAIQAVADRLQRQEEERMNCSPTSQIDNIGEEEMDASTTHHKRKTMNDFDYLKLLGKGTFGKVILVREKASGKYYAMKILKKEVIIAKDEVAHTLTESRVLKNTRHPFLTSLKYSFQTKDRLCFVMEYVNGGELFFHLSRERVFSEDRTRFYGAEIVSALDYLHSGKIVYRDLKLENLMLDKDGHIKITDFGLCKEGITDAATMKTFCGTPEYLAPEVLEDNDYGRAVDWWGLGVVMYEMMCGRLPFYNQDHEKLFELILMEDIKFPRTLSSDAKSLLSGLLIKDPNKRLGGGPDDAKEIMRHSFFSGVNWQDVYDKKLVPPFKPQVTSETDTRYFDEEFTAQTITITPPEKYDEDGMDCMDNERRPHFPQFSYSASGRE
Test: AKT3 biochemical kinase assay (FP iMAP)
Settings: read-out: AKT IC50, AKT3
observationType: pIC50
In plain terms, pIC50 is the concentration in mol/L turned into minus its base-10 logarithm.

Sample answers from the record:
compoundSmiles: NC1(c2ccc(-c3nc4c(cc3-c3ccccc3)NC(=O)CO4)cc2)CCC1
result: 5.21
//
compoundSmiles: CCN1C(=O)COc2nc(-c3ccc([C@]4(N)C[C@@H](O)C4)cc3)c(-c3ccccc3)cc21
result: 5.56

Now for another entry.
Bench note: what pIC50 did "CN1C(=O)COc2nc(-c3ccc(C4(N)CCC4)cc3)c(-c3ccccc3)cc21" show?
5.25

###

Tested on: normal cell lines
Experiment: In vitro proliferation assay (CellTiter-Glo), normal cell lines
Type: cell-based
Conditions: normal cell lines, 72 h; read-out: anti-proliferative IC50, normal cells
observationType: IC50

Can you look up IC50 on normal cell lines for "CCN1C(=O)COc2nc(-c3ccc([C@]4(N)C[C@@H](O)C4)cc3)c(-c3ccccc3)cc21" ?
> 20 µM

###

Assay: Pharmacokinetic study in Sprague–Dawley rats
Format: in vivo, rat
Details: Sprague-Dawley, rat, plasma, iv; male SD rats, 1 mg/kg i.v.; read-out: Rat PK Vd
// reported Vd for each item listed
The answer is to be given in L/kg; state only the numeric part.

compound: NC1(c2ccc(-c3nc4ccn5c(=O)[nH]nc5c4cc3-c3ccccc3)cc2)CCC1 [MK-2206, reference compound]
Vd, L/kg: 12

Entry CCN1C(=O)COc2nc(-c3ccc([C@]4(N)C[C@@H](O)C4)cc3)c(-c3ccccc3)cc21 [ALM301] : reported Vd = ?
13
